# experiment-summary: Half life in Sprague-Dawley rat at 5 mg/kg, iv administered as bolus dose measured over 12 hrs by LC-MS/MS analysis
# Format: ADME, organism-based
# test-settings: in vivo
observed-property: half-life (h)
Quick reminder: number only, in h, skip the unit.

Query: Which half-life value belongs to C/C(=N\NC(=N)N)c1cnn(-c2ccc(C#CC3CCCC3)cc2)c1C ?
Result: 10.5

---

Please respond with reported MIC for every item in the list.
# Tested on: Salmonella enteritidis
# experiment-summary: Antibacterial activity against Salmonella enteritidis ATCC 14028 clinical isolates after 18 to 20 hrs in aerobic condition by CLSI-based broth microdilution assay
# Type: functional, Salmonella enterica subsp. enterica serovar Enteritidis
# test-settings: Salmonella enterica
Quick reminder: number only, in mg/L, skip the unit.

Query: Which MIC value belongs to C/C(=N\NC(=N)N)c1cnn(-c2ccc(C#CC3CCCCC3)cc2)c1C ?
Result: 32

Query: Which MIC value belongs to CCCC#Cc1ccc(-n2ncc(/C(C)=N/NC(=N)N)c2C)cc1 ?
Result: 16

Query: Which MIC value belongs to C/C(=N\NC(=N)N)c1cnn(-c2ccc(C#CC3CCCC3)cc2)c1C ?
Result: 8

Query: Which MIC value belongs to C/C(=N\NC(=N)N)c1cnn(-c2ccc(C#Cc3ccccc3)cc2)c1C ?
Result: 16

---

# experiment-summary: Stability in human liver microsomes assessed as compound remaining incubated for 60 mins in absence of NADPH by LC/MS/MS analysis
# Type: ADME, Microsome
# test-settings: read-out: Stability
Please respond with reported remaining at 1 h for every item in the list.

Query: Which remaining at 1 h value belongs to C/C(=N\NC1=NCCN1)c1cnn(-c2ccc(C#CC3CCCC3)cc2)c1C ?
Result: 97%

Query: Which remaining at 1 h value belongs to C/C(=N\NC(=N)N)c1cnn(-c2ccc(C#CC3CCCC3)cc2)c1C ?
Result: 91%

---

# System: Staphylococcus aureus
# experiment-summary: Antibacterial activity against Methicillin-resistant Staphylococcus aureus NRS385-USA500 clinical isolates after 18 to 20 hrs in aerobic condition by CLSI protocol based broth microdilution assay
# Format: functional
observed-property: MIC

Query: Which MIC value belongs to CCCC#Cc1ccc(-n2ncc(/C(C)=N/NC(=N)N)c2C)cc1 ?
Result: 2 µg/mL

Query: Which MIC value belongs to C/C(=N\NC(=N)N)c1cnn(-c2ccc(C#CC3CCCC3)cc2)c1C ?
Result: 0.5 µg/mL

Query: Which MIC value belongs to CCCCCC#Cc1ccc(-n2ncc(/C(C)=N/NC(=N)N)c2C)cc1 ?
Result: 2 µg/mL

Query: Which MIC value belongs to C/C(=N\NC(=N)N)c1cnn(-c2ccc(C#CC3CCCCC3)cc2)c1C ?
Result: 2 µg/mL

Query: Which MIC value belongs to CCCCCC#Cc1ccc(-n2ncc(/C(C)=N/NC3=NCCN3)c2C)cc1 ?
Result: 2 µg/mL

Query: Which MIC value belongs to C/C(=N\NC(=N)N)c1cnn(-c2ccc(C#Cc3ccccc3)cc2)c1C ?
Result: 1 µg/mL

Query: Which MIC value belongs to C/C(=N\NC(=N)N)c1cnn(-c2ccc(C#CC3(O)CCCCC3)cc2)c1C ?
Result: 2 µg/mL

Query: Which MIC value belongs to C/C(=N\NC1=NCCN1)c1cnn(-c2ccc(C#CC3CCCC3)cc2)c1C ?
Result: 4 µg/mL
